ASSAY_SYSTEM: H.AMCase (human AMCase) (Homo sapiens, UniProt Q9BZP6)
Sequence (Q9BZP6 22-476): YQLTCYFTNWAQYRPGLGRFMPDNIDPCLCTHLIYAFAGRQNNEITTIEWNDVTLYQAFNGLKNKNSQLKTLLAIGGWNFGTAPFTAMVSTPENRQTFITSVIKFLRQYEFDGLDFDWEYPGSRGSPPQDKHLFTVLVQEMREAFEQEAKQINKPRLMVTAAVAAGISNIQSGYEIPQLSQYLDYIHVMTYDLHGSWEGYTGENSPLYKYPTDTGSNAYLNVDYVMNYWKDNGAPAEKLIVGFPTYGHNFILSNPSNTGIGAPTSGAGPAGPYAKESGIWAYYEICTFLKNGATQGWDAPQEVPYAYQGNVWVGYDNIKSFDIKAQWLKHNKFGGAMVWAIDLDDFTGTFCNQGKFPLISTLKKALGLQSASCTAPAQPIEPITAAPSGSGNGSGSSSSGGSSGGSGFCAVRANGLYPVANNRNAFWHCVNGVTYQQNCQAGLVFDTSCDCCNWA
ASSAY_COMMENT: Further inhibition studies, human AMCase (Table 2)
Type: biochemical
pIC50: −log10 of the molar value.
MEASUREMENT_LABEL: pIC50

Task: Name the reported pIC50 value associated with the molecule Cn1c(=O)c2[nH]cnc2n(C)c1=O
Output: ~2.70

----------
ASSAY_SYSTEM: M.AMCase (mouse AMCase) (Mus musculus, UniProt Q91XA9)
Sequence (Q91XA9 22-473): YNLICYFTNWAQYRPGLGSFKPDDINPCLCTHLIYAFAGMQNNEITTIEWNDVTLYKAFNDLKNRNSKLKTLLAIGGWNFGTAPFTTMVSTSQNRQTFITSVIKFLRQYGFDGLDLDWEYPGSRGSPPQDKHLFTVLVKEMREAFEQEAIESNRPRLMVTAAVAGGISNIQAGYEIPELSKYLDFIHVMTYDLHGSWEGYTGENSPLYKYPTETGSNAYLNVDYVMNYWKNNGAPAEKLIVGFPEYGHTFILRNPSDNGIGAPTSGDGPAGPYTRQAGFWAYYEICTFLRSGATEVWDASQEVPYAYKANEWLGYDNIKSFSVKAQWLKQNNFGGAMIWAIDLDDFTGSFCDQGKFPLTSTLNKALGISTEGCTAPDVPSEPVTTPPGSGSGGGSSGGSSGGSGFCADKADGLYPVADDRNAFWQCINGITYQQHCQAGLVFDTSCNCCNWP
ASSAY_COMMENT: Further inhibition studies, mouse AMCase (Table 2)
Assay type: biochemical
MEASUREMENT_LABEL: IC50

Task: Given the compound Cn1c(=O)c2[nH]cnc2n(C)c1=O , what is its reported IC50?
Output: ~1600 µM
